- Test system: HeLa Kyoto
- measurementProtocol: solubility in G1/S (NP-40 vs SDS abundance) (log2 ratio); higher = more soluble
- protocolConditions: cell cycle stage: G1/S
reportedProperty: solubility in G1/S (log2)
Lab note: record the figure alone, no unit after it.

Consider the worked cases shown below.
* MCNTPTYCDLGKAAKDVFNKGYGFGMVKIDLKTKSCSGVEFSTSGHAYTDTGKASGNLETKYKVCNYGLTFTQKWNTDNTLGTEISWENKLAEGLKLTLDTIFVPNTGKKSGKLKASYKRDCFSVGSNVDIDFSGPTIYGWAVLAFEGWLAGYQMSFDTAKSKLSQNNFALGYKAADFQLHTHVNDGTEFGGSIYQKVNEKIETSINLAWTAGSNNTRFGIAAKYMLDCRTSLSAKVNNASLIGLGYTQTLRPGVKLTLSALIDGKNFSAGGHKVGLGFELEA [VDAC3] | -0.0264
* MGCTVSAEDKAAAERSKMIDKNLREDGEKAAREVKLLLLGAGESGKSTIVKQMKIIHEDGYSEEECRQYRAVVYSNTIQSIMAIVKAMGNLQIDFADPSRADDARQLFALSCTAEEQGVLPDDLSGVIRRLWADHGVQACFGRSREYQLNDSAAYYLNDLERIAQSDYIPTQQDVLRTRVKTTGIVETHFTFKDLHFKMFDVGGQRSERKKWIHCFEGVTAIIFCVALSAYDLVLAEDEEMNRMHESMKLFDSICNNKWFTDTSIILFLNKKDLFEEKITHSPLTICFPEYTGANKYDEAASYIQSKFEDLNKRKDTKEIYTHFTCATDTKNVQFVFDAVTDVIIKNNLKDCGLF [GNAI2] | -0.568

Can you share its solubility in G1/S (log2)? I mean this sequence: MGSSKKVTLSVLSREQSEGVGARVRRSIGRPELKNLDPFLLFDEFKGGRPGGFPDHPHRGFETVSYLLEGGSMAHEDFCGHTGKMNPGDLQWMTAGRGILHAEMPCSEEPAHGLQLWVNLRSSEKMVEPQYQELKSEEIPKPSKDGVTVAVISGEALGIKSKVYTRTPTLYLDFKLDPGAKHSQPIPKGWTSFIYTISGDVYIGPDDAQQKIEPHHTAVLGEGDSVQVENKDPKRSHFVLIAGEPLREPVIQHGPFVMNTNEEISQAILDFRNAKNGFERAKTWKSKIGN [PIR] 0.288

Can you share its solubility in G1/S (log2)? I mean this sequence: MADEATRRVVSEIPVLKTNAGPRDRELWVQRLKEEYQSLIRYVENNKNADNDWFRLESNKEGTRWFGKCWYIHDLLKYEFDIEFDIPITYPTTAPEIAVPELDGKTAKMYRGGKICLTDHFKPLWARNVPKFGLAHLMALGLGPWLAVEIPDLIQKGVIQHKEKCNQ [UFC1] 0.134

Can you share its solubility in G1/S (log2)? I mean this sequence: MEESGYESVLCVKPDVHVYRIPPRATNRGYRAAEWQLDQPSWSGRLRITAKGQMAYIKLEDRTSGELFAQAPVDQFPGTAVESVTDSSRYFVIRIEDGNGRRAFIGIGFGDRGDAFDFNVALQDHFKWVKQQCEFAKQAQNPDQGPKLDLGFKEGQTIKLNIANMKKKEGAAGNPRVRPASTGGLSLLPPPPGGKTSTLIPPPGEQLAVGGSLVQPAVAPSSGGAPVPWPQPNPATADIWGDFTKSTGSTSSQTQPGTGWVQF [NECAP2] 0.173

Can you share its solubility in G1/S (log2)? I mean this sequence: MQLEIQVALNFIISYLYNKLPRRRVNIFGEELERLLKKKYEGHWYPEKPYKGSGFRCIHIGEKVDPVIEQASKESGLDIDDVRGNLPQDLSVWIDPFEVSYQIGEKGPVKVLYVDDNNENGCELDKEIKNSFNPEAQVFMPISDPASSVSSSPSPPFGHSAAVSPTFMPRSTQPLTFTTATFAATKFGSTKMKNSGRSNKVARTSPINLGLNVNDLLKQKAISSSMHSLYGLGLGSQQQPQQQQQPAQPPPPPPPPQQQQQQKTSALSPNAKEFIFPNMQGQGSSTNGMFPGDSPLNLSPLQYSNAFDVFAAYGGLNEKSFVDGLNFSLNNMQYSNQQFQPVMAN [TOB1] 0.14

Can you share its solubility in G1/S (log2)? I mean this sequence: MDDLCEANGTFAISLFKILGEEDNSRNVFFSPMSISSALAMVFMGAKGSTAAQMSQALCLYKDGDIHRGFQSLLSEVNRTGTQYLLRTANRLFGEKTCDFLPDFKEYCQKFYQAELEELSFAEDTEECRKHINDWVAEKTEGKISEVLDAGTVDPLTKLVLVNAIYFKGKWNEQFDRKYTRGMLFKTNEEKKTVQMMFKEAKFKMGYADEVHTQVLELPYVEEELSMVILLPDDNTDLAVVEKALTYEKFKAWTNSEKLTKSKVQVFLPRLKLEESYDLEPFLRRLGMIDAFDEAKADFSGMSTEKNVPLSKVAHKCFVEVNEEGTEAAAATAVVRNSRCSRMEPRFCADHPFLFFIRHHKTNCILFCGRFSSP [SERPINB8] 0.146

Can you share its solubility in G1/S (log2)? I mean this sequence: MERPQPDSMPQDLSEALKEATKEVHTQAENAEFMRNFQKGQVTRDGFKLVMASLYHIYVALEEEIERNKESPVFAPVYFPEELHRKAALEQDLAFWYGPRWQEVIPYTPAMQRYVKRLHEVGRTEPELLVAHAYTRYLGDLSGGQVLKKIAQKALDLPSSGEGLAFFTFPNIASATKFKQLYRSRMNSLEMTPAVRQRVIEEAKTAFLLNIQLFEELQELLTHDTKDQSPSRAPGLRQRASNKVQDSAPVETPRGKPPLNTRSQAPLLRWVLTLSFLVATVAVGLYAM [HMOX1] 0.553

Can you share its solubility in G1/S (log2)? I mean this sequence: MAAAEPAVLALPNSGAGGAGAPSGTVPVLFCFSVFARPSSVPHGAGYELLIQKFLSLYGDQIDMHRKFVVQLFAEEWGQYVDLPKGFAVSERCKVRLVPLQIQLTTLGNLTPSSTVFFCCDMQERFRPAIKYFGDIISVGQRLLQGARILGIPVIVTEQYPKGLGSTVQEIDLTGVKLVLPKTKFSMVLPEVEAALAEIPGVRSVVLFGVETHVCIQQTALELVGRGVEVHIVADATSSRSMMDRMFALERLARTGIIVTTSEAVLLQLVADKDHPKFKEIQNLIKASAPESGLLSKV [ISOC1] 0.237

Can you share its solubility in G1/S (log2)? I mean this sequence: MDLLQFLAFLFVLLLSGMGATGTLRTSLDPSLEIYKKMFEVKRREQLLALKNLAQLNDIHQQYKILDVMLKGLFKVLEDSRTVLTAADVLPDGPFPQDEKLKDAFSHVVENTAFFGDVVLRFPRIVHYYFDHNSNWNLLIRWGISFCNQTGVFNQGPHSPILSLMAQELGISEKDSNFQNPFKIDRTEFIPSTDPFQKALREEEKRRKKEEKRKEIRKGPRISRSQSEL [CCDC134] 0.505

----------
- Tested on: HeLa Kyoto
- measurementProtocol: solubility change mitosis vs G1/S (difference of NP-40 vs SDS log2 ratios) (log2 ratio difference); higher = more soluble in mitosis
Outcome label depends on solubility change mitosis (log2) relative to -0.04: at/above gives YES, below gives NO.

* MACAAARSPADQDRFICIYPAYLNNKKTIAEGRRIPISKAVENPTATEIQDVCSAVGLNVFLEKNKMYSREWNRDVQYRGRVRVQLKQEDGSLCLVQFPSRKSVMLYAAEMIPKLKTRTQKTGGADQSLQQGEGSKKGKGKKKK [SRP19] | YES
* MAPKFPDSVEELRAAGNESFRNGQYAEASALYGRALRVLQAQGSSDPEEESVLYSNRAACHLKDGNCRDCIKDCTSALALVPFSIKPLLRRASAYEALEKYPMAYVDYKTVLQIDDNVTSAVEGINRMTRALMDSLGPEWRLKLPSIPLVPVSAQKRWNSLPSENHKEMAKSKSKETTATKNRVPSAGDVEKARVLKEEGNELVKKGNHKKAIEKYSESLLCSNLESATYSNRALCYLVLKQYTEAVKDCTEALKLDGKNVKAFYRRAQAHKALKDYKSSFADISNLLQIEPRNGPAQKLRQEVKQNLH [TOMM34] | YES
* MDDLCEANGTFAISLFKILGEEDNSRNVFFSPMSISSALAMVFMGAKGSTAAQMSQALCLYKDGDIHRGFQSLLSEVNRTGTQYLLRTANRLFGEKTCDFLPDFKEYCQKFYQAELEELSFAEDTEECRKHINDWVAEKTEGKISEVLDAGTVDPLTKLVLVNAIYFKGKWNEQFDRKYTRGMLFKTNEEKKTVQMMFKEAKFKMGYADEVHTQVLELPYVEEELSMVILLPDDNTDLAVVEKALTYEKFKAWTNSEKLTKSKVQVFLPRLKLEESYDLEPFLRRLGMIDAFDEAKADFSGMSTEKNVPLSKVAHKCFVEVNEEGTEAAAATAVVRNSRCSRMEPRFCADHPFLFFIRHHKTNCILFCGRFSSP [SERPINB8] | NO

I'd appreciate it if you could say whether MGQNDLMGTAEDFADQFLRVTKQYLPHVARLCLISTFLEDGIRMWFQWSEQRDYIDTTWNCGYLLASSFVFLNLLGQLTGCVLVLSRNFVQYACFGLFGIIALQTIAYSILWDLKFLMRNLALGGGLLLLLAESRSEGKSMFAGVPTMRESSPKQYMQLGGRVLLVLMFMTLLHFDASFFSIVQNIVGTALMILVAIGFKTKLAALTLVVWLFAINVYFNAFWTIPVYKPMHDFLKYDFFQTMSVIGGLLLVVALGPGGVSMDEKKKEW [SURF4] has solubility change mitosis (log2) at least equal to -0.04. YES

I'd appreciate it if you could say whether MSGCDAREGDCCSRRCGAQDKEHPRYLIPELCKQFYHLGWVTGTGGGISLKHGDEIYIAPSGVQKERIQPEDMFVCDINEKDISGPSPSKKLKKSQCTPLFMNAYTMRGAGAVIHTHSKAAVMATLLFPGREFKITHQEMIKGIKKCTSGGYYRYDDMLVVPIIENTPEEKDLKDRMAHAMNEYPDSCAVLVRRHGVYVWGETWEKAKTMCECYDYLFDIAVSMKKVGLDPSQLPVGENGIV [APIP] has solubility change mitosis (log2) at least equal to -0.04. NO

I'd appreciate it if you could say whether MAVDITLLFRASVKTVKTRNKALGVAVGGGVDGSRDELFRRSPRPKGDFSSRAREVISHIGKLRDFLLEHRKDYINAYSHTMSEYGRMTDTERDQIDQDAQIFMRTCSEAIQQLRTEAHKEIHSQQVKEHRTAVLDFIEDYLKRVCKLYSEQRAIRVKRVVDKKRLSKLEPEPNTKTRESTSSEKVSQSPSKDSEENPATEERPEKILAETQPELGTWGDGKGEDELSPEEIQMFEQENQRLIGEMNSLFDEVRQIEGRVVEISRLQEIFTEKVLQQEAEIDSIHQLVVGATENIKEGNEDIREAIKNNAGFRVWILFFLVMCSFSLLFLDWYDS [STX18] has solubility change mitosis (log2) at least equal to -0.04. NO

I'd appreciate it if you could say whether MAERGELDLTGAKQNTGVWLVKVPKYLSQQWAKASGRGEVGKLRIAKTQGRTEVSFTLNEDLANIHDIGGKPASVSAPREHPFVLQSVGGQTLTVFTESSSDKLSLEGIVVQRAECRPAASENYMRLKRLQIEESSKPVRLSQQLDKVVTTNYKPVANHQYNIEYERKKKEDGKRARADKQHVLDMLFSAFEKHQYYNLKDLVDITKQPVVYLKEILKEIGVQNVKGIHKNTWELKPEYRHYQGEEKSD [GTF2F2] has solubility change mitosis (log2) at least equal to -0.04. NO

I'd appreciate it if you could say whether MTKIKADPDGPEAQAEACSGERTYQELLVNQNPIAQPLASRRLTRKLYKCIKKAVKQKQIRRGVKEVQKFVNKGEKGIMVLAGDTLPIEVYCHLPVMCEDRNLPYVYIPSKTDLGAAAGSKRPTCVIMVKPHEEYQEAYDECLEEVQSLPLPL [NHP2] has solubility change mitosis (log2) at least equal to -0.04. YES

I'd appreciate it if you could say whether MQWNVPRTVSRLARRTCLEPHNAGLFGHCQNVKGPLLLYNAESKVVLVQGPQKQWLHLSAAQCVAKERRPLDAHPPQPGVLRHKQGKQHVSFRRVFSSSATAQGTPEKKEEPDPLQDKSISLYQRFKKTFRQYGKVLIPVHLITSGVWFGTFYYAALKGVNVVPFLELIGLPDSVVSILKNSQSGNALTAYALFKIATPARYTVTLGGTSVTVKYLRSHGYMSTPPPVKEYLQDRMEETKELITEKMEETKDRLTEKLQETKEKVSFKKKVE [FAM210A] has solubility change mitosis (log2) at least equal to -0.04. NO

I'd appreciate it if you could say whether MSRQTATALPTGTSKCPPSQRVPALTGTTASNNDLASLFECPVCFDYVLPPILQCQSGHLVCSNCRPKLTCCPTCRGPLGSIRNLAMEKVANSVLFPCKYASSGCEITLPHTEKADHEELCEFRPYSCPCPGASCKWQGSLDAVMPHLMHQHKSITTLQGEDIVFLATDINLPGAVDWVMMQSCFGFHFMLVLEKQEKYDGHQQFFAIVQLIGTRKQAENFAYRLELNGHRRRLTWEATPRSIHEGIATAIMNSDCLVFDTSIAQLFAENGNLGINVTISMC [SIAH1] has solubility change mitosis (log2) at least equal to -0.04. NO

All figures here come from the supplement of paper PMC5998384.
